Method: Cytotoxicity against human HCT15 cells after 3 days by CCK8 assay
Format: functional, cell-based
Experimental conditions: HCT-15, 72 h
Recorded endpoint: pIC50
Reminder that pIC50 is minus the log10 of a molar concentration.

>>> print(df.to_string())
                         chemical_structure  readout_number
0  Oc1ccc(-c2cc(-c3ccc(Cl)cc3)nc3c2Cc2ccccc2-3)cc1            6.06
1  Oc1ccccc1-c1cc(-c2ccccc2Cl)nc2c1Cc1ccccc1-2            5.21
2  Oc1cccc(-c2cc(-c3ccccc3Cl)nc3c2Cc2ccccc2-3)c1            6.40
3  Oc1ccc(-c2cc(-c3ccccc3)c3c(n2)-c2ccccc2C3)cc1            5.70
4  Oc1cccc(-c2cc(-c3cccc(Cl)c3)c3c(n2)-c2ccccc2C3)c1            5.80

GET /value?item= Oc1ccc(-c2cc(-c3ccccc3Cl)c3c(n2)-c2ccccc2C3)cc1 &field=pIC50 returns 6.08

----------
Experimental system: DNA topoisomerase 1 (Homo sapiens) (UniProt P11387)
Sequence (P11387 whole entry): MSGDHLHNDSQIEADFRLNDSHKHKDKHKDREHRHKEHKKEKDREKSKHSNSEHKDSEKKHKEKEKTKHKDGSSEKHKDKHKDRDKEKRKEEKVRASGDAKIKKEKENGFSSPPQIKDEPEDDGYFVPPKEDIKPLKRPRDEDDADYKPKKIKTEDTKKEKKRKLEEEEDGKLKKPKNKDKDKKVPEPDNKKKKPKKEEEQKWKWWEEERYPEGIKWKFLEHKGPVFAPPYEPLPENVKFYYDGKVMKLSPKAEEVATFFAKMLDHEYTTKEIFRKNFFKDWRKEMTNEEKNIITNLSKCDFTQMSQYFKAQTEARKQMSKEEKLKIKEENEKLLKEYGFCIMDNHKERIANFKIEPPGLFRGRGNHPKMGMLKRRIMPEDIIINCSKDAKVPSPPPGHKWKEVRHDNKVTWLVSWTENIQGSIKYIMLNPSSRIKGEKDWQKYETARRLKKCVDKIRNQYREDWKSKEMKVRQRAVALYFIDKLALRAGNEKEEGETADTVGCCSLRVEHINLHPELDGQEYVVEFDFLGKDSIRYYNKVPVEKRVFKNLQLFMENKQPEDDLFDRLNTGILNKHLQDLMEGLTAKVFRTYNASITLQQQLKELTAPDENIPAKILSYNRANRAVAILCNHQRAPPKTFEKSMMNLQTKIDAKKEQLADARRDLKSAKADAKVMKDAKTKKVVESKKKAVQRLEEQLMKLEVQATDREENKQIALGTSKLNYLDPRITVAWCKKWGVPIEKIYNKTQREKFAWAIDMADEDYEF
Method: Inhibition of human recombinant DNA topoisomerase 1 at 100 uM assessed as relaxation of supercoiled DNA pBR322 after 30 mins by Agarose gel electrophoresis
Listing of recorded inhibition by entry.
State the answer as a number, implicitly in %.

>>> df
                         chemical_structure                       experimental_system  readout_number
0  Oc1ccccc1-c1cc(-c2ccccc2Cl)nc2c1Cc1ccccc1-2  DNA topoisomerase 1 (Homo sapiens) (UniProt P11387)             0.8

GET /value?item= Oc1cccc(-c2cc(-c3ccccc3Cl)c3c(n2)-c2ccccc2C3)c1 &field=inhibition returns 29.3

GET /value?item= Oc1ccc(-c2cc(-c3ccccc3Cl)c3c(n2)-c2ccccc2C3)cc1 &field=inhibition returns 15.5

GET /value?item= Oc1ccccc1-c1cc(-c2cccc(Cl)c2)c2c(n1)-c1ccccc1C2 &field=inhibition returns 1.1

GET /value?item= c1ccc(-c2cc(-c3ccccc3)c3c(n2)-c2ccccc2C3)cc1 &field=inhibition returns 0

GET /value?item= Oc1ccc(-c2cc(-c3cccc(Cl)c3)c3c(n2)-c2ccccc2C3)cc1 &field=inhibition returns 35.5

GET /value?item= Oc1ccccc1-c1cc(-c2cccc(Cl)c2)nc2c1Cc1ccccc1-2 &field=inhibition returns 0

GET /value?item= Oc1ccccc1-c1cc(-c2ccccc2)c2c(n1)-c1ccccc1C2 &field=inhibition returns 1.3

GET /value?item= Oc1ccccc1-c1cc(-c2ccccc2Cl)c2c(n1)-c1ccccc1C2 &field=inhibition returns 0

GET /value?item= Oc1cccc(-c2cc(-c3ccc(Cl)cc3)c3c(n2)-c2ccccc2C3)c1 &field=inhibition returns 5.8

----------
Listing of recorded pIC50 by entry.
Method: Cytotoxicity against human HCT15 cells after 3 days by CCK8 assay
Type: functional, cell-based
Experimental conditions: HCT-15, 72 h
Reminder that pIC50 is minus the log10 of a molar concentration.

                         chemical_structure  readout_number
0  Oc1ccc(-c2cc(-c3ccccc3Cl)nc3c2Cc2ccccc2-3)cc1            5.74
1  Oc1ccc(-c2cc(-c3cccc(Cl)c3)nc3c2Cc2ccccc2-3)cc1            6.51
2  Oc1ccc(-c2cc(-c3ccccc3)nc3c2Cc2ccccc2-3)cc1            5.67
3  Oc1cccc(-c2cc(-c3ccc(Cl)cc3)c3c(n2)-c2ccccc2C3)c1            5.68

Shift focus to the following entry.
GET /value?item= CC[C@@]1(O)C(=O)OCc2c1cc1n(c2=O)Cc2cc3ccccc3nc2-1 &field=pIC50 returns 5.89
